B1: Proto-oncogene vav, residues 782 to 842; numbered along this chain, P15498 (parent)
chain: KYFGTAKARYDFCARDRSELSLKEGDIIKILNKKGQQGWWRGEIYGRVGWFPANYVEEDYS

Variants of: B1
Test: abundance fitness (aPCA) (normalised: wild type 0, dead -1); higher = more abundant; growth selection in yeast, the domain comes from the species named
Conditions: Homo sapiens
Listing of recorded abundance fitness by entry.

K23I: -0.524

Q: Which abundance fitness value belongs to K1Y ?
Ans: -0.261

Q: Reported abundance fitness for Y45M : what is it?
Ans: 0.1

Q: May I ask what abundance fitness has been recorded for G46C ?
Ans: -0.784

Q: Which abundance fitness value is on record for E24M ?
Ans: -0.009
